# protocol_text: NCI Yeast Anticancer Drug Screen. Data for the mlh1 rad18 strain (AID 175)
# test_conditions: S. cerevisiae mlh1 rad18 strain growth inhibition; at 50.0 µM
About 79,000 compounds went through this panel and 15% of them were active in at least one assay; those are over-represented in the sample as a whole. Calls of active or inactive are those of the source. Rule as the data show it: active = growth inhibition above about 70%; inactive = the rest.
Field 'call' accepts Y (active), N (inactive)

>>> df
                                   compound  answer_label
0  O=C1C2C3C=CC(C3)C2C(=NS(=O)(=O)c2ccccc2)C2C3C=CC(C3)C12 (configuration not stated)             Y
1  S=C(Nc1ccccc1)[S][Sb]([S]C(=S)Nc1ccccc1)[c]1ccccc1             N
2  O=C(/C=C\c1ccc([N+](=O)[O-])o1)/C=C/c1ccc([N+](=O)[O-])o1             Y

[in] Write down the call the test reported for this compound. Item: CCCCCCCC(=O)N1CCCCC1CC (configuration not stated)
[out] N

[in] Write down the call the test reported for this compound. Item: `Cc1cnc(Sc2c([N+](=O)[O-])ncn2C)nc1`
[out] Y

[in] Write down the call the test reported for this compound. Item: `COc1ccc(N=Nc2ccc3oc(=O)c(C(=O)Nc4ccc(OC)cc4)cc3c2)cc1`
[out] Y

[in] Write down the call the test reported for this compound. Item: `O=C(O)c1cc2ccc3cccc4ccc(c1)c2c34`
[out] Y

[in] Write down the call the test reported for this compound. Item: `O=S(=O)(Nc1ccccc1)c1ccccc1C#Cc1ccccc1`
[out] Y

----------
# protocol_text: NCI Yeast Anticancer Drug Screen. Data for the mec2-1 strain (AID 157)
# test_conditions: S. cerevisiae mec2-1 strain, at 5.0 µM (retest, dose inferred, filed as 0.5)
This is part of a sample that, as a whole, favours compounds with a hit. Of some 79,000 tested, about 15% had one in any assay. Calls of active or inactive are those of the source. No stated cut-off is given here; in the data, active means growth inhibition above about 70%; inactive means the rest.
Field 'call' accepts yes (1) = active, no (0) = inactive

>>> print(df.to_string())
                                   molecule  answer_label
0         CC(=O)Oc1ccc(C(C)(C)CC(C)(C)C)cc1        no (0)
1  C[N+]1(C)CCN(CCCN2c3ccccc3Sc3ccccc32)CC1        no (0)
2            ClC(Cl)(Cl)C(c1ccccc1)c1ccccc1        no (0)
3  Nc1ccc(S(=O)(=O)C23CC4CC(CC(C4)C2)C3)cc1        no (0)

[in] Write down the call the test reported for this molecule. Item: `CCCCCCN(CCCCCC)CCC(=O)c1ccc2cc(Cl)c3ccccc3c2c1`
[out] no (0)

[in] Write down the call the test reported for this molecule. Item: `c1ccc(-c2cc(-c3cc(-c4ccccn4)[nH]n3)n[nH]2)nc1`
[out] no (0)

[in] Write down the call the test reported for this molecule. Item: `CCC(=O)OC1=C(Cl)C(=O)c2ccccc2C1=O`
[out] no (0)

[in] Write down the call the test reported for this molecule. Item: `NNc1ccc(Br)cc1`
[out] yes (1)

[in] Write down the call the test reported for this molecule. Item: `COc1ccc2nc3cc([N+](=O)[O-])ccc3c(NCCO)c2c1`
[out] no (0)

[in] Write down the call the test reported for this molecule. Item: COc1ccc(C(C)c2cc3c(cc2OC/C(C)=N/NC(N)=O)OCO3)cc1 (configuration not stated)
[out] no (0)

[in] Write down the call the test reported for this molecule. Item: N#CC(Cl)CS(=O)(=O)c1ccccc1 (configuration not stated)
[out] yes (1)

[in] Write down the call the test reported for this molecule. Item: `COC(=O)C(=O)CC(=O)c1cccc(Cl)c1`
[out] no (0)

----------
# protocol_text: NCI Yeast Anticancer Drug Screen. Data for the rad50 strain (AID 155);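 also: 0% = growth of vehicle-only cultures of the same strain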
# test_conditions: S. cerevisiae rad50 strain growth inhibition; at 5.0 µM (retest, dose inferred, filed as 0.5); hits give high values
The panel holds about 79,000 compounds, 15% with a hit somewhere; the sample as a whole holds those more often.
experimental_readout: growth inhibition (%)
Numeric answer only, unit % assumed.

>>> print(df.to_string())
                                   compound  recorded_result
0        O=C(O)/C(=C/c1ccccc1)c1ccccc1.[Ag]               99
1  Cc1c(C[n+]2cc3ccccc3cc2/C=N/O)ccc2ccccc12                1
2  CC(COC(=O)C(c1ccccc1)C1C=CCCC1)CN1CCCC1 (stereo unspecified)               -1

[in] Form field: reported growth inhibition of `NC(=S)N/N=C/c1cn(CCCl)c2ccccc12`
[out] 7

[in] Form field: reported growth inhibition of `Cc1cc([N+](=O)[O-])ccc1NC(=O)N(C)CCOC(=O)Nc1ccccc1`
[out] 48

[in] Form field: reported growth inhibition of OCC1CCc2[nH]c3ccccc3c2C1 (stereo unspecified)
[out] -159

[in] Form field: reported growth inhibition of CCOC(=O)C1(Br)CCN(S(=O)(=O)c2ccc(C)cc2)c2ccccc2C1=O (stereo unspecified)
[out] 1

[in] Form field: reported growth inhibition of `Oc1c(Cl)c(Cl)c2ncccc2c1Cl`
[out] 14

[in] Form field: reported growth inhibition of COc1ccc(C2c3cn[nH]c3CC3CCCCC32)cc1 (stereo unspecified)
[out] 25

[in] Form field: reported growth inhibition of CCC(c1ccccc1)N1C(=O)c2ccccc2S1(=O)=O (stereo unspecified)
[out] -3

[in] Form field: reported growth inhibition of `Oc1ccc2ccccc2c1CNc1ccc2ccccc2c1`
[out] 8

[in] Form field: reported growth inhibition of Cc1ccc(C)c(NC(=O)/C(=N\NC(N)=S)C(C#N)c2ccccc2)c1 (stereo unspecified)
[out] 5

[in] Form field: reported growth inhibition of `Nc1ccccc1Sc1ccc(F)cc1[N+](=O)[O-]`
[out] -6

[in] Form field: reported growth inhibition of CC(NCCO)c1ccc2ccccc2c1 (stereo unspecified)
[out] 0

----------
# protocol_text: NCI Yeast Anticancer Drug Screen. Data for the sgs1 mgt1 strain (AID 161);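 also: 0% = growth of cultures given vehicle only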
# test_conditions: S. cerevisiae sgs1 mgt1 strain, at 50.0 µM (retest, dose inferred, filed as 5.0)
The panel holds about 79,000 compounds, 15% with a hit somewhere; the sample as a whole holds those more often. Active and inactive are the calls of the source. Cut-off read from the data, not from the text of the source: active = growth inhibition above about 70%; inactive = the rest.
Field 'call' accepts true (active), false (inactive)

Some solved cases for reference:
>>> print(df.to_string())
                                   molecule  answer_label
0  CC(O[Si](C)(C)C(C)(C)C)C(=O)Sc1ccccn1 (stereo unspecified)         false
1  CS(=O)(=O)OCCN(CCOS(C)(=O)=O)c1ccc(N=Nc2ccccc2)cc1          true
2  C[Si](C)(C)CC(c1ccccc1)C(O)c1ccccc1 (stereo unspecified)          true

[in] Write down the call the test reported for this molecule. Item: `Cc1[nH]nc(C(=O)N(C)C)c1N=NN(C)C`
[out] true

[in] Write down the call the test reported for this molecule. Item: `CCCCCOCC(=O)OC`
[out] false

[in] Write down the call the test reported for this molecule. Item: `N#CSCCSCc1ccc(Cl)cc1`
[out] true

[in] Write down the call the test reported for this molecule. Item: O=C(OC12CCCCC1CCCC2)c1ccc([N+](=O)[O-])cc1 (stereo unspecified)
[out] true

[in] Write down the call the test reported for this molecule. Item: COc1cccc(C2CC(C)(O)Oc3cc4c(cc32)OCO4)c1 (stereo unspecified)
[out] false

[in] Write down the call the test reported for this molecule. Item: CN(C)C1CCC2C3CC=C4CC(OC=O)CCC4(C)C3CCC21C (stereo unspecified)
[out] false

[in] Write down the call the test reported for this molecule. Item: O=C(O)CC(C(=O)O)C(c1cccc2ccccc12)c1cccc2ccc3ccccc3c12 (stereo unspecified)
[out] true

[in] Write down the call the test reported for this molecule. Item: `CC(C)C[NH-].CC(C)C[NH-].[Cl][Pt+2]([Cl])([Cl])[Cl]`
[out] true

[in] Write down the call the test reported for this molecule. Item: `CC(=O)NNc1nc(C)c(C(=O)NNC(=O)C(=O)Nc2ccc(Cl)cc2Cl)s1`
[out] true

[in] Write down the call the test reported for this molecule. Item: `CC(=O)Nc1ccc(S(=O)(=O)N/N=C/c2cc(I)cc([N+](=O)[O-])c2O)cc1`
[out] false

[in] Write down the call the test reported for this molecule. Item: COc1ccccc1OCC(COC(=O)Nc1ccc(C)cc1)OC(=O)Nc1ccc(C)cc1 (stereo unspecified)
[out] false

----------
# protocol_text: NCI Yeast Anticancer Drug Screen. Data for the bub3 strain (AID 167)
# test_conditions: S. cerevisiae bub3 mutant strain, at 50.0 µM
About 79,000 compounds went through this panel and 15% of them were active in at least one assay; those are over-represented in the sample as a whole. The source made the active and inactive calls. Rule as the data show it: active = growth inhibition above about 70%; inactive = the rest.
Field 'call' accepts active, inactive

[in] Write down the call the test reported for this compound. Item: CCOC(=O)C1CSC(c2c(CO)cnc(C)c2O)N1 (centres undefined)
[out] inactive

[in] Write down the call the test reported for this compound. Item: `Nc1ccc2c(c1)CN1C(=O)c3ccccc3C1=N2`
[out] inactive

[in] Write down the call the test reported for this compound. Item: `Cc1ccc(NC(=S)N(CCC#N)C2CCCCC2)cc1C`
[out] inactive
